System: Mycobacterium tuberculosis
Test: Cornell - Phenotypic assay to identify agents that inhibit growth of Mycobacterium tuberculosis
Assay type: functional
Parameters: scale not given: direction of the effect not stated beside the values
Settings: 10 mM as filed; unlikely as a test dose
Among all 53,000 compounds or so, about 900 (1.7%) showed an effect of 50% or more. The entries come from a sample that favours strong results as a whole.
assay.readout: Percent Effect (%)
Give just the number in %; leave the unit off.

[
  {
    "compound": "CCOc1cccc(COC(=O)c2ccc(F)cn2)n1",
    "tested.system": "Mycobacterium tuberculosis",
    "measurement.units": "%",
    "Percent Effect": 26.62
  }
]

-- ask For the compound Cc1noc(C)c1-c1cccc(C2CN(S(=O)(=O)N(C)C)CCO2)n1 (configuration not stated) , what Percent Effect is on record?
-- reply 37.24

-- ask For the compound CCOc1cccc(COC(=O)c2cscn2)n1 , what Percent Effect is on record?
-- reply 94.28

-- ask For the compound CCN(CC)c1ccc(NC(=O)NC(C)Cn2cccn2)cn1 (configuration not stated) , what Percent Effect is on record?
-- reply -29.36

-- ask For the compound CC1(C)CC(=O)c2cnc3nc(N4CCCC4)[nH]c(=O)c3c2C1 , what Percent Effect is on record?
-- reply 23.1

-- ask For the compound CCS(=O)(=O)Nc1ccn(Cc2ccc(F)cc2Cl)n1 , what Percent Effect is on record?
-- reply 28.06

====

Tested on: Mycobacterium tuberculosis
Assay: Cornell - Phenotypic assay to identify agents that inhibit growth of Mycobacterium tuberculosis
Assay type: functional
Set-up: scale not given: direction of the effect not stated beside the values
Conditions: 10 mM as filed; unlikely as a test dose
Hit rate of the full screen: of about 53,000 compounds, about 900 (1.7%) showed an effect of 50% or more. This excerpt belongs to a sample that is enriched for strong results.
assay.readout: Percent Effect
Include the unit right after the number.

Recorded results for 3 molecules are shown here.
[
  {
    "molecule": "CN(C)Cc1cnc(C2CN(C(=O)c3ccccc3Cl)CCO2)[nH]1 (stereo unspecified)",
    "tested.system": "Mycobacterium tuberculosis",
    "Percent Effect": "-0.6177%"
  },
  {
    "molecule": "CCOC(=O)c1cc(C(C)(O)CCC=C(C)C)on1 (stereo unspecified)",
    "tested.system": "Mycobacterium tuberculosis",
    "Percent Effect": "106.6%"
  },
  {
    "molecule": "CN(CCCOc1ccccc1)Cc1nc2c(cnn2C)c(=O)[nH]1",
    "tested.system": "Mycobacterium tuberculosis",
    "Percent Effect": "27.35%"
  }
]

-- ask Query Percent Effect on Mycobacterium tuberculosis for Cc1nc(CN2C(=O)COC3(CCN(CC4CC4)CC3)C2C)cs1.O=C(O)C(F)(F)F (stereo unspecified)
-- reply 6.692%

-- ask Query Percent Effect on Mycobacterium tuberculosis for Cc1cc(C(F)(F)F)n2nc(C3CCN(S(=O)(=O)N(C)C)CC3)cc2n1
-- reply -8.533%

-- ask Query Percent Effect on Mycobacterium tuberculosis for COc1ccccc1NC(=O)Cn1c(=O)nc(N)c2cc(C)sc21
-- reply -16.18%

====

Each entry below carries its recorded Percent Effect.
Test system: Mycobacterium tuberculosis
Test: Cornell - Phenotypic assay to identify agents that inhibit growth of Mycobacterium tuberculosis
Format: functional
Parameters: scale not given: direction of the effect not stated beside the values
Details: 10 mM as filed; unlikely as a test dose
The whole screen tested about 53,000 compounds, of which about 900 (1.7%) showed an effect of 50% or more. Many of the other results were omitted from the sample, so strong results are more common in it than they were.
Give just the number in %; leave the unit off.

Recorded results for 3 compounds are shown here.
[
  {
    "compound": "Cc1nnc(N2CC[C@@H](OCC3CC3)[C@@H](Cc3ccccc3)C2)s1.O=C(O)C(F)(F)F",
    "Percent Effect (%)": 81.09
  },
  {
    "compound": "CCOC(=O)C(C)NC(=O)CCc1ccc(F)cc1 (stereo unspecified)",
    "Percent Effect (%)": 12.11
  },
  {
    "compound": "COC(=O)CCC(=O)N(Cc1ccc2cc[nH]c2c1)C1CC1",
    "Percent Effect (%)": 90.28
  }
]

-- ask For the compound CO[C@@H]1CCN(c2nnc(C)s2)C[C@@H]1Cc1ccccc1.O=C(O)C(F)(F)F , what Percent Effect is on record?
-- reply 33.57

-- ask For the compound CC(=O)N1CCCC1c1nc(C)c2c(n1)N(Cc1ccccn1)CCC2 (stereo unspecified) , what Percent Effect is on record?
-- reply -10.82

-- ask For the compound CCOC(=O)C(C)NC(=O)CCSc1ccc(F)cc1 (stereo unspecified) , what Percent Effect is on record?
-- reply 72.72
